Where a name gives a salt, the structure may show the parent alone.
These records show pIC50 for DPP-IV enzyme (Homo sapiens, UniProt P27487).
Just the number, please; pIC50 means minus log10 of the concentration in mol/L.

Look over these answered cases.
1) N[C@@H](CC(=O)N1CCn2c(C(F)(F)F)nc(C(=O)N3CCCC3)c2C1)Cc1cc(F)c(F)cc1F [Example 12, hydrochloride] : 7.23
2) NC(=O)C1CCN(C(=O)c2nc(C(F)(F)F)n3c2CN(C(=O)C[C@H](N)Cc2cc(F)c(F)cc2F)CC3)CC1 [Example 7, hydrochloride] : 7.60
3) CC(C)OC(=O)OC(C)OC(=O)c1nc(C(F)(F)F)n2c1CN(C(=O)C[C@H](N)Cc1cc(F)c(F)cc1F)CC2 (stereo partly shown) [Example 37, hydrochloride] : 7.48

Okay, next one:
The compound N[C@@H](CC(=O)N1CCn2c(C(F)(F)F)nc(C(=O)N3CC[C@@H](O)C3)c2C1)Cc1cc(F)c(F)cc1F [Example 14, hydrochloride] on DPP-IV enzyme (Homo sapiens, UniProt P27487): pIC50 was 7.33

----------
log10(IC50) by entry:
# TARGET_OF_ASSAY: DPP-IV enzyme (Homo sapiens)
# Sequence (P27487 whole entry): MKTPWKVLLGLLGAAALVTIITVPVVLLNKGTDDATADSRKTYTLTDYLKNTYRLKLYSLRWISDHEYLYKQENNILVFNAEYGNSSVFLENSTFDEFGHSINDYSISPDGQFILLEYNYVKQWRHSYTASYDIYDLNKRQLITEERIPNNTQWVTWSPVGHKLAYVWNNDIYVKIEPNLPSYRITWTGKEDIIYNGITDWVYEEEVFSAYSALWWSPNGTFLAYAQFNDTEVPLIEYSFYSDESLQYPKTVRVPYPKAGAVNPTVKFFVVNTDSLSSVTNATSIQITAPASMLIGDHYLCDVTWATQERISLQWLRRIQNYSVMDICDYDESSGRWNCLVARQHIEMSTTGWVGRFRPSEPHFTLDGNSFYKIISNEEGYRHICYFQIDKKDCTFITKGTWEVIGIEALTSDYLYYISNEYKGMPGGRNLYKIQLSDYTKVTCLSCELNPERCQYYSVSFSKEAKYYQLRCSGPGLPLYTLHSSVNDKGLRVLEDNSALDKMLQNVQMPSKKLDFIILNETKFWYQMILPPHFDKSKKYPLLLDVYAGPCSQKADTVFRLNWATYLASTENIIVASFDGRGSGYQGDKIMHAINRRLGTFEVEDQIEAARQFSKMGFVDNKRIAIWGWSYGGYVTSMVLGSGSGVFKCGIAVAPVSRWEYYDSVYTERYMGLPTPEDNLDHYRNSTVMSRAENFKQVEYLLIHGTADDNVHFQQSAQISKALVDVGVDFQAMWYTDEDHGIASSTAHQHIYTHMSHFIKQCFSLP
Where a name gives a salt, the structure may show the parent alone.
A difference of one corresponds to tenfold IC50; all values are log10 with IC50 in nM.

Look over these answered cases.
1) COC(=O)c1nc(C(F)(F)F)n2c1[C@@H](C)N(C(=O)C[C@H](N)Cc1cc(F)c(F)cc1F)CC2 [Example 41, hydrochloride] : 0.70
2) CS(=O)(=O)CCNC(=O)c1nc(C(F)(F)F)n2c1CN(C(=O)C[C@H](N)Cc1cc(F)c(F)cc1F)CC2 [Example 2, hydrochloride] : 0.90

Notebook: N[C@@H](CC(=O)N1CCn2c(C(F)(F)F)nc(C(=O)O)c2C1)Cc1cc(F)c(F)cc1F [Example 10, hydrochloride] , log10(IC50) read as 1.32

Notebook: CC(OC(=O)OC1CCCCC1)OC(=O)c1nc(C(F)(F)F)n2c1CN(C(=O)C[C@H](N)Cc1cc(F)c(F)cc1F)CC2 (stereo partly drawn) [Example 38, hydrochloride] , log10(IC50) read as 2.26

Notebook: N[C@@H](CC(=O)N1CCn2c(C(F)(F)F)nc(C(=O)NC3CC3)c2C1)Cc1cc(F)c(F)cc1F [Example 15, hydrochloride] , log10(IC50) read as 1.40

Notebook: N[C@@H]1CCCN(C(=O)c2nc(C(F)(F)F)n3c2CN(C(=O)C[C@H](N)Cc2cc(F)c(F)cc2F)CC3)C1 [Example 11, dihydrochloride] , log10(IC50) read as 2.33

----------
# TARGET_OF_ASSAY: DPP-IV enzyme (Homo sapiens)
Counter-ions that a name gives are not always drawn.
API: label(entry) gives 1.0 if the entry's IC50 is strictly smaller than 80 nM; on equality or larger values it gives 0.0.

1) CN(C)C(=O)c1nc(C(F)(F)F)n2c1CN(C(=O)C[C@H](N)Cc1cc(F)c(F)cc1F)CC2 [Example 9, hydrochloride] : 1.0
2) CNC(=O)c1nc(C(F)(F)F)n2c1CN(C(=O)C[C@H](N)Cc1cc(F)c(F)cc1F)CC2 [Example 8, hydrochloride] : 1.0
3) N[C@@H](CC(=O)N1CCn2c(C(F)(F)F)nc(C(=O)N3CCOCC3)c2C1)Cc1cc(F)c(F)cc1F [Example 3, hydrochloride] : 0.0
4) COC(=O)c1nc(C(F)(F)F)n2c1[C@H](C)N(C(=O)C[C@H](N)Cc1cc(F)c(F)cc1F)CC2 [Example 40, hydrochloride] : 0.0

Continue with the next compound.
Query :: is_below(IC50, 80 nM) for COC(=O)c1nc(C(F)(F)F)n2c1C(C)N(C(=O)C[C@H](N)Cc1cc(F)c(F)cc1F)CC2 (some centres unmarked) [Example 39, hydrochloride] ?
Result :: 1.0

Reference for the values: patent US8513411B2
